experiment: Resistance index, Ratio of EC50 for drug-resistant HIV1 with RT IRLL98 mutation in MT4 cells to EC50 for HIV1 NL43 in MT4 cells
Tick Criterion met if Ratio EC50 is 70 or greater. Tick Criterion not met if Ratio EC50 is less than 70.

molecule | group
Cc1c(Cc2c(F)cccc2F)nc(N2CCCC(C)C2)[nH]c1=O (centres undefined) | Criterion met
CC(C)N(C)c1nc(Cc2c(F)cccc2F)cc(=O)[nH]1 | Criterion not met
Cc1c(C(C)c2c(F)cccc2F)nc(N2CCSCC2)[nH]c1=O (centres undefined) | Criterion not met
CCN(C)c1nc(C(C)c2c(F)cccc2F)c(C)c(=O)[nH]1 (centres undefined) | Criterion not met
CC(c1cc(=O)[nH]c(N(C)C)n1)c1c(F)cccc1F (centres undefined) | Criterion met
Cc1c(C(C)c2c(F)cccc2F)nc(N2CCCCC2)[nH]c1=O (centres undefined) | Criterion not met
Cc1c(C(C)c2c(F)cccc2F)nc(N2CCC(C)CC2)[nH]c1=O (centres undefined) | Criterion met
Cc1c(C(C)c2c(F)cccc2F)nc(N(C)C(C)C)[nH]c1=O (centres undefined) | Criterion not met
Cc1c(Cc2c(F)cccc2F)nc(N(C)C(C)C)[nH]c1=O | Criterion not met
CCC(c1nc(N(C)C)[nH]c(=O)c1C)c1c(F)cccc1F (centres undefined) | Criterion met
CCC(c1cc(=O)[nH]c(N(C)C)n1)c1c(F)cccc1F (centres undefined) | Criterion met
CCN(C)c1nc(Cc2c(F)cccc2F)cc(=O)[nH]1 | Criterion met
O=c1cc(Cc2c(F)cccc2F)nc(N2CCCCCC2)[nH]1 | Criterion not met
CC1CCCN(c2nc(Cc3c(F)cccc3F)cc(=O)[nH]2)C1 (centres undefined) | Criterion not met
CCCN(C)c1nc(Cc2c(F)cccc2F)c(C)c(=O)[nH]1 | Criterion not met
Cc1c(Cc2c(F)cccc2F)nc(N(C)C)[nH]c1=O | Criterion met
CCCNc1nc(C(C)c2c(F)cccc2F)c(C)c(=O)[nH]1 (centres undefined) | Criterion not met
Cc1c(C(C)c2c(F)cccc2F)nc(N2CCOCC2)[nH]c1=O (centres undefined) | Criterion not met
CC1CCN(c2nc(Cc3c(F)cccc3F)cc(=O)[nH]2)CC1 | Criterion met
Cc1c(C(C)c2c(F)cccc2F)nc(N2CCCC2)[nH]c1=O (centres undefined) | Criterion met
CC1CCCCN1c1nc(Cc2c(F)cccc2F)cc(=O)[nH]1 (centres undefined) | Criterion not met
CCc1c(C(C)c2c(F)cccc2F)nc(N(C)C)[nH]c1=O (centres undefined) | Criterion met
CCCN(C)c1nc(C(C)c2c(F)cccc2F)c(C)c(=O)[nH]1 (centres undefined) | Criterion not met
Cc1c(C(C)c2c(F)cccc2F)nc(N2CCCC(C)C2)[nH]c1=O (centres undefined) | Criterion not met
Cc1c(Cc2c(F)cccc2F)nc(N(C)C2CCCCC2)[nH]c1=O | Criterion met
Cc1c(Cc2c(F)cccc2F)nc(N2CCCCCC2)[nH]c1=O | Criterion not met
CCCN(C)c1nc(C(C)c2c(F)cccc2F)cc(=O)[nH]1 (centres undefined) | Criterion met
CCN(C)c1nc(Cc2c(F)cccc2F)c(C)c(=O)[nH]1 | Criterion not met
Cc1c(Cc2c(F)cccc2F)nc(N2CCCCC2C)[nH]c1=O (centres undefined) | Criterion met
Cc1c(C(C)c2c(F)cccc2F)nc(SC2CCCC2)[nH]c1=O (centres undefined) | Criterion met
O=c1cc(Cc2c(F)cccc2F)nc(N2CCCCC2)[nH]1 | Criterion met
Cc1c(Cc2c(F)cccc2F)nc(N2CCCCC2)[nH]c1=O | Criterion met
Cc1c(C(C)c2c(F)cccc2F)nc(N(C)C)[nH]c1=O (centres undefined) | Criterion not met
CN(C)c1nc(Cc2c(F)cccc2F)cc(=O)[nH]1 | Criterion met

Cited source for all entries: ChEMBL document CHEMBL1137561
